Let's look at some molecules and their measured pIC50.
molecular target: Receptor-type tyrosine-protein kinase FLT3 (Homo sapiens, UniProt P36888, ITD)
Sequence (P36888 whole entry, looked up, change not shown): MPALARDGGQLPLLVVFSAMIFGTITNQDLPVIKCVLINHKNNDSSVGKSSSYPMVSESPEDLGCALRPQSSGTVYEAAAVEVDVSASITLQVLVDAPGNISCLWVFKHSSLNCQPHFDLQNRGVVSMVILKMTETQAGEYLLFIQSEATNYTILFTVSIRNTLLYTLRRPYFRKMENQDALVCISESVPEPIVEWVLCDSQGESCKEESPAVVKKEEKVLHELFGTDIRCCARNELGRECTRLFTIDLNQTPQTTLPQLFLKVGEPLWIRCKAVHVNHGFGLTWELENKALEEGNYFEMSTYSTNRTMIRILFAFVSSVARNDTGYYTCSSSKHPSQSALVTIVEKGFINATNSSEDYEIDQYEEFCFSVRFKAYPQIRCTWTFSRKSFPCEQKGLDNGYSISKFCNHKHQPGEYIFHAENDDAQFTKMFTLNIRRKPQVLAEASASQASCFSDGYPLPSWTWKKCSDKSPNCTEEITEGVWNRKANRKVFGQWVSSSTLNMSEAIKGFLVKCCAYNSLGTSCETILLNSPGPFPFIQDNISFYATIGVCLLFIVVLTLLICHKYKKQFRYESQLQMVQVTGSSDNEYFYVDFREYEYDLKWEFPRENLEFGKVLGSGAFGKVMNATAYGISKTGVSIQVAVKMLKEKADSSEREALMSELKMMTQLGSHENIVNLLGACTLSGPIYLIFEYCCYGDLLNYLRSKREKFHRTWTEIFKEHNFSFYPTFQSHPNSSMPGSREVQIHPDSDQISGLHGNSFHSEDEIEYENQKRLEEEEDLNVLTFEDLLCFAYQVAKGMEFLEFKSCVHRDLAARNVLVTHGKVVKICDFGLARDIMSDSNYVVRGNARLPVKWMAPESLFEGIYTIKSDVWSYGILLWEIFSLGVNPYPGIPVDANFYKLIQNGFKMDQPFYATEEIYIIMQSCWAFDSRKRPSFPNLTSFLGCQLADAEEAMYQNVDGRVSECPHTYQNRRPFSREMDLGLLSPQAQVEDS
Note on pIC50: it is the negative log10 of concentration, concentration in mol/L.

Guide cases for pIC50, answers given:
COc1cc(N2CCCCC2)ccc1NC(=O)c1cnn2ccc(N[C@@H]3CCCNC3)nc12
7.16
COc1cc(N2CCCC2)ccc1NC(=O)c1cnn2ccc(N[C@@H]3CCCNC3)nc12
7.08
COc1cc(N(C)CCN(C)C)ccc1NC(=O)c1cnn2ccc(N[C@@H]3CCCNC3)nc12
7.43
COc1cc(N2CCN(C)CC2)ccc1NC(=O)c1cnn2ccc(N3CCC[C@@H](N)C3)nc12
8.43
CCOc1cc(N2CCOCC2)ccc1NC(=O)c1cnn2ccc(N[C@@H]3CCCNC3)nc12
8.39
Cc1cc(N2CCOCC2)ccc1NC(=O)c1cnn2ccc(N[C@@H]3CCCNC3)nc12
8.96

Would you mind telling me what pIC50 value was observed for `COc1cc(N2CCNCC2)ccc1NC(=O)c1cnn2ccc(N3CCC[C@@H](N)C3)nc12` ?
8.72

Moving on to `COc1cc(N2CCOCC2)ccc1NC(=O)c1cnn2ccc(N[C@@H]3CCCNC3)nc12`
8.51

Same lookup for `COc1cc(N2CCN(C(C)=O)CC2)ccc1NC(=O)c1cnn2ccc(N[C@@H]3CCCNC3)nc12` , please.
8.92
